- Test system: angiotensin-converting enzyme (ACE)
- Construct: purified angiotensin-converting enzyme (ACE) from rabbit lungs; purchased Sigma, St-Louis, Mo; host or cells: purified from rabbit lungs
- TEST_SUMMARY: Metabolic degradation by purified angiotensin-converting enzyme, HPLC analysis
- Type: in vitro ADME, rabbit
- RECORDED_CONDITIONS: rabbit, isolated enzyme ace, pH 7.5
Non-standard residues stand in square brackets, D forms with d. Residues, ends and D or L forms follow the SMILES beside them. Hyp = O=C(O)[C@@H]1C[C@@H](O)CN1; dTic = O=C(O)[C@H]1Cc2ccccc2CN1
MEASUREMENT_TYPE: metabolised at 0.5 h (%)
Express the result in % but write the number alone.

Ask | Give its metabolised at 0.5 h value. Item: CC(C)C[C@H](NC(=O)[C@H]1Cc2ccccc2CN1C(=O)[C@H](CO)NC(=O)[C@H](Cc1ccccc1)NC(=O)CNC(=O)[C@@H]1C[C@@H](O)CN1C(=O)[C@@H]1CCCN1C(=O)[C@H](CCCNC(=N)N)NC(=O)[C@H](N)CCCNC(=N)N)C(=O)O [Compound 17, D-Arg(Hyp^3, D-Tic^7, Leu^8)desArg^9BK] (H-[dR]RP[Hyp]GFS[dTic]L-OH; N-terminus and C-terminus assumed)
Reply | 0

Ask | Give its metabolised at 0.5 h value. Item: C[C@H](NC(=O)[C@H]1Cc2ccccc2CN1C(=O)[C@H](CO)NC(=O)[C@H](Cc1ccccc1)NC(=O)CNC(=O)[C@@H]1CCCN1C(=O)[C@@H]1CCCN1C(=O)[C@H](CCCNC(=N)N)NC(=O)[C@H](N)CCCNC(=N)N)C(=O)O [Compound 15, D-Arg(D-Tic^7, Ala^8)desArg^9BK] (H-[dR]RPPGFS[dTic]A-OH; N-terminus and C-terminus assumed)
Reply | 21

Ask | Give its metabolised at 0.5 h value. Item: CC[C@H](C)[C@H](NC(=O)[C@H]1Cc2ccccc2CN1C(=O)[C@H](CO)NC(=O)[C@H](Cc1ccccc1)NC(=O)CNC(=O)[C@@H]1CCCN1C(=O)[C@@H]1CCCN1C(=O)[C@H](CCCNC(=N)N)NC(=O)[C@H](N)CCCNC(=N)N)C(=O)O [Compound 13, D-Arg(D-Tic^7, Ile^8)desArg^9BK] (H-[dR]RPPGFS[dTic]I-OH; N-terminus and C-terminus assumed)
Reply | 9

***
Ask | Give its metabolised at 0.5 h value. Item: CC(C)C[C@H](NC(=O)[C@H]1Cc2ccccc2CN1C(=O)[C@H](CO)NC(=O)[C@H](Cc1ccccc1)NC(=O)CNC(=O)[C@@H]1CCCN1C(=O)[C@@H]1CCCN1C(=O)[C@H](CCCNC(=N)N)NC(=O)[C@H](N)CCCNC(=N)N)C(=O)O [Compound 12, D-Arg(D-Tic^7, Leu^8)desArg^9BK] (H-[dR]RPPGFS[dTic]L-OH; N-terminus and C-terminus assumed)
Reply | 0

src = patent US7041785B1
